study-target: T1, soluble human tissue factor (extracellular domain of hTF with C-terminal RGS-His6 tag) (human, UniProt P13726 33-251)
T1 construct: leader left out (range computed from the stated lengths); Expressed in HEK293, purified on Ni-agarose and by gel filtration; also called soluble hTF; recombinant soluble hTF
protocol-summary: BIAcore X, soluble hTF immobilized on CM5 chip, mAb injected
Catalogue of koff readings, one per entry.
Give the value, in units of s⁻¹, as a plain number.

// below: answered binders
[
  {
    "binder": "monoclonal anti-TF antibody TF277 (hybridoma cell line TF277, ATCC PTA-5675) (antibody, IgG1, V domains shown) VH: QVQLQQPGAELVKPGASVKLSCKTSGYTFTSYWMHWVKQRPGQGLEWIGEIDPSDSYTNYNQKFKGKATLTVDKSSSTAYMQLSSLTSEDSAVYYCTYYVNYYAMDYWGQGTSVTVSS VL: QIVLTQSPAIMSASLGEEITLTCSASSSVSYMHWYQQKSGTSPKLLIYSTSNLASGVPSRFSGSGSGTFYSLTISSVEAEDAADYYCHQWSSYPYTFGGGTKLEIK",
    "koff / s⁻¹": 0.00312
  },
  {
    "binder": "monoclonal anti-TF antibody TF260 (hybridoma cell line TF260, ATCC PTA-5197) (antibody, V domains shown) VH: QVQLKQSGAELMKPGASVKISCKATGYTFSSYWIEWVKQRPGHGLEWIGEILPGSGSTNYNEKFKGKATFTADTSSNTAYMQLSSLTSEDSAVYYCAREDRYDGDYWGQGTTLTVS VL: QAVVTQESALTTSPGETVTLTCRSSTGAVTTSNYANWVQEKPDHLFTGLIGGTNNRAPGVPARFSGSLIGDKAALTITGAQTEDEAIYFCALWYSNHWVFGGGTKLTVLG",
    "koff / s⁻¹": 0.000191
  }
]

Here is another binder to look at.
The value of koff measured for the binder monoclonal anti-TF antibody TF9 (hybridoma cell line TF9, ATCC PTA-5674) (antibody, V domains shown) VH: DVKLQESGPDLVKPSQSLSLTCTVTGYSITSGYSWHWIRQFPGNKLEWMGYIHYSGSTKYNPSLKSRISITRDTSKNQFFLQLNSVTTEDTATYYCARLWSWYFDVWGAGTTVTVSS VL: NIMMTQSPSSLAVSAGEKVTMSCKSSQSVLYSSNQKNYLAWYQQKPGQSPKLLIYWASTRESGVPDRFTGSGSGTDFTLTISSVQAEDLAVYYCHQYLSSYTFGGGTKLEIK turned out to be 0.000364
